Biological target: Human SARS-CoV-2_Wuhan S (SmT1) (SARS-CoV-2 (Wuhan), UniProt P0DTC2 14-1208)
Assay: SPR, VHH over immobilised S
Param label: returns 1.0 when Kd < 0.9 nM, returns 0.0 otherwise, including exact equality.

Worked examples, 5 binders total:
NRCoV2-03 VHH (VHH) VHH: EVQLVSSGGGLVQAGGSLRLSCTASGITFSYYAMGWYRQAPGQPRELVASMSNMDSTIYADSVKGRFTISRDNAKTTIYLQMNNLKPEDTAVYFCNIYGPTYSTRRNEYWGQGTQVTVSS; 0.0
NRCoV2-MRed04 VHH (VHH) VHH: EVQLVESGGGLVQPGRSLRLSCAASGNSFSISTMGWFRQAPGKERELVASIWSDTTTSYADSVKGRFTISTDNTRTKVYLQMSSLNPEDTAVYYCAADRGFVVRGQYDYWGQGTQVTVSS; 1.0
NRCoV2-1d VHH (VHH) VHH: EVQLVESGGGSVQPGGSLRLSCAASGSTLDYYAIGWFRQAPGKEREWVSSVSSSDGNTLYADSVKGRFTISRDNAKNTVYLQMNSLKAEDTAVYVCAADYSMRPFAVGRWHRDYEYWGQGTQVTVSS; 1.0
NRCoV2-MRed25 VHH (VHH) VHH: EVQLVESGGGLVQAGGSLRLSCAASGHTFSRYGMGWFRQAPGKEREFVAAISWRGDSTYYRDSVNGRFTISRDNAKNTVYLGMNSLKPEDTAVYYCAAEMWGTATIVASRYTYWGQGTQVTVSS; 0.0
NRCoV2-S2G4 VHH (VHH) VHH: QVQLVQSGGGLVQAGGSLTLSCAPSGSTFSGYATNWYRQAPGKQRELVATISSDGDKNYADSVKGRFTISRDNAKNTVYLQMNSLKPEDTAVYYCNKHWWTGDWWGQGTQVTVSS; 1.0

Now for another entry.
INPUT: Kd under 0.9 nM? Item: NRCoV2-06 VHH (VHH) VHH: EVQLVQSGGGLVQAGESLRLSCAASVSTFSSYAMGWYRQAPGKQRELVASIGFVGATYYIDSVKGRFTISRDNAKKTAYLQMNDLKPDDTAVYYCNARHYGGSEYWGQGTQVTVSS
OUTPUT: 0.0
